# target-or-system: ABCA1 cholesterol transporter protein (Mus musculus)
# Construct: endogenous in cells
# Sequence (P41233 whole entry): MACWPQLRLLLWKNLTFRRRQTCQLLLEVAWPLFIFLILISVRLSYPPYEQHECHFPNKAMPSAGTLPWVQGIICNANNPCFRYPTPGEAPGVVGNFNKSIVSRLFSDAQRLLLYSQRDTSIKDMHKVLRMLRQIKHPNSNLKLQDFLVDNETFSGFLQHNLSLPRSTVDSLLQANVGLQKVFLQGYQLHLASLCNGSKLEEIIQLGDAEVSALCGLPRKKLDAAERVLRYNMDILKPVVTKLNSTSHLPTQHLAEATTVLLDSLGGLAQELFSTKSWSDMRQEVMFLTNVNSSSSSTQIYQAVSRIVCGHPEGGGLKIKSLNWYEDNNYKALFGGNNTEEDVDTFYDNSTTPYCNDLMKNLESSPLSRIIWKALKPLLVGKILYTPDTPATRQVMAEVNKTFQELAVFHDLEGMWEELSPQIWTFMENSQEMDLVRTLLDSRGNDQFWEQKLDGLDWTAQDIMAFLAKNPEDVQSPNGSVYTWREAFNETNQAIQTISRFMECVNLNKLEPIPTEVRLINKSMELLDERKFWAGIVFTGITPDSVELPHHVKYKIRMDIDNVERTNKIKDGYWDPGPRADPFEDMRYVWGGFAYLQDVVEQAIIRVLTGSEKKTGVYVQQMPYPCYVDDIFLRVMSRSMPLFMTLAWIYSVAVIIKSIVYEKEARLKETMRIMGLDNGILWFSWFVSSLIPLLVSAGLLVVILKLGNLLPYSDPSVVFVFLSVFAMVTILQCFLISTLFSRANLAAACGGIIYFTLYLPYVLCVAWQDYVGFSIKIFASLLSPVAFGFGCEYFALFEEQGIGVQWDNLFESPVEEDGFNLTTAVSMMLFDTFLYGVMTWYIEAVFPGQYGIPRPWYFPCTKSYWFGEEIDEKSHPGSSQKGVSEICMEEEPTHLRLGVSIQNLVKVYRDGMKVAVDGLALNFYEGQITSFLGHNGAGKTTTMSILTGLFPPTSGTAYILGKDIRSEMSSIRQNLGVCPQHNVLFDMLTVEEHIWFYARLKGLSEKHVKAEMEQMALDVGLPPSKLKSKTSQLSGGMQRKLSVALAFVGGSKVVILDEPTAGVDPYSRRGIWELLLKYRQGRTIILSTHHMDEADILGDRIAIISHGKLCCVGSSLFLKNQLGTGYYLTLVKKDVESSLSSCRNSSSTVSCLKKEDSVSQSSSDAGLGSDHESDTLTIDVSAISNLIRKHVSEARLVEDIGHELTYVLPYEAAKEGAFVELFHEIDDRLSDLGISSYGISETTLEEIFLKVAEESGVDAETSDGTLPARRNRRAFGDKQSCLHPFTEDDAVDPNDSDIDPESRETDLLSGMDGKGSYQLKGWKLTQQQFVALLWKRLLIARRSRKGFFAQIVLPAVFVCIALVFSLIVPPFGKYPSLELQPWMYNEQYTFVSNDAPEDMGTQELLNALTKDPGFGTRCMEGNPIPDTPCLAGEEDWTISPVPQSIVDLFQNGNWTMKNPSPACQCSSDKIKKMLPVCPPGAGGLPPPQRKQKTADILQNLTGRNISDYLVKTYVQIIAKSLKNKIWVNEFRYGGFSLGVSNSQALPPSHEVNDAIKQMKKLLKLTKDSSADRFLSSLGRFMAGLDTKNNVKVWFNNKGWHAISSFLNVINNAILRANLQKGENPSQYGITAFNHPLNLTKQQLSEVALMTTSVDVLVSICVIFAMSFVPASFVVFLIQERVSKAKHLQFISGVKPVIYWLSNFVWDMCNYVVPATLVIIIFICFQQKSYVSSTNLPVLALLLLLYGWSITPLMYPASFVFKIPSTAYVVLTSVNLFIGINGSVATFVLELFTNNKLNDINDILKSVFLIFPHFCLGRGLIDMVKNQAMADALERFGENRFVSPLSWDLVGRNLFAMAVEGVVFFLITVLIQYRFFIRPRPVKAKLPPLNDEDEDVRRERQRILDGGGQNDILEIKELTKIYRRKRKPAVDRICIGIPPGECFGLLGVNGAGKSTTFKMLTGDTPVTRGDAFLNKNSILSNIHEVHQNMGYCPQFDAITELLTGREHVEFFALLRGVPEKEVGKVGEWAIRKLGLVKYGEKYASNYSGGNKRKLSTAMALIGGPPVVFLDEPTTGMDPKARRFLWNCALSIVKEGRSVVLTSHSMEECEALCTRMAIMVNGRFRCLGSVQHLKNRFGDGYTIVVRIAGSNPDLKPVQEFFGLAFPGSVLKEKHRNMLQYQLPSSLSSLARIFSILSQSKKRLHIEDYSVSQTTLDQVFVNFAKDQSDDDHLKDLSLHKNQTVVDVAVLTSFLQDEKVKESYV
# measurement-protocol: ABCA1-dependent cholesterol efflux from RAW mouse macrophage cells (in vitro RCT assay)
# Type: cell-based
*1 amine or outer side, *2 acyl side, *3 side chain or, on linkers, in order; H or OH if unused. Where no end group is shown, it is not given here. [ ]: non-standard residue; d: D form. S6H = (2S)-2-aminooct-7-enoic acid, C=CCCCC[C@H](N[*:1])C(=O)[*:2]; dGly(6-heptenyl) = C=CCCCCC[C@@H](N)C(=O)O; R5 = C=CCCC[C@@](C)(N)C(=O)O
quantity: activity in the cholesterol efflux / in vitro RCT assay, in words

# annotated cases, reported activity in the cholesterol efflux / in vitro RCT assay, in words shown
INSERT INTO assay_data (substance, target_or_system, reported_result) VALUES
  ('PVLDEFRER5MELNER5MELEALKQKLK (Ac-PVLDEFRE[R5]LNE[R5]LEALKQKLK; not fully specified (C-terminus); bridges not given here) [SEQ ID NO 16]', 'ABCA1 cholesterol transporter protein (Mus musculus)', 'very low to no activity'),
  ('PVLDEFRES5HLNES5HLEALKQKLK (Ac-PVLDEFRE[S5H]LNE[S5H]LEALKQKLK; not fully specified (C-terminus)) [SEQ ID NO 15]', 'ABCA1 cholesterol transporter protein (Mus musculus)', 'very low to no activity'),
  ('PR7HLDEFREKLNEELEALKQKLK (Ac-P[dGly(6-heptenyl)]LDEFREKLNEELEALKQKLK; not fully specified (C-terminus)) [SEQ ID NO 20]', 'ABCA1 cholesterol transporter protein (Mus musculus)', 'only slightly active'),
  ('PS6HLDEFREKLNEELEALKQKLK (Ac-P[S6H]LDEFREKLNEELEALKQKLK; not fully specified (C-terminus)) [SEQ ID NO 23]', 'ABCA1 cholesterol transporter protein (Mus musculus)', 'only slightly active'),
  ('PVLDEFREKLNEELEALKQR7HLK (Ac-PVLDEFREKLNEELEALKQ[dGly(6-heptenyl)]LK; not fully specified (C-terminus); printed as PVLDEFREKLNEELEALKQR7HLK) [SEQ ID NO 22]', 'ABCA1 cholesterol transporter protein (Mus musculus)', 'only slightly active');

Write activity in the cholesterol efflux / in vitro RCT assay, in words of PVLDEFREKLNEELEALKQS6HLK (Ac-PVLDEFREKLNEELEALKQ[S6H]LK; not fully specified (C-terminus); printed as PVLDEFREKLNEELEALKQS6HLK) [SEQ ID NO 25] ; system used: ABCA1 cholesterol transporter protein (Mus musculus)
only slightly active

Values were extracted from patent US20110046056A1.
